Values compiled from the supplement of paper PMC9446081.

A collection of compounds and their measured relative growth
Test system: Escherichia coli K-12 BW25113
experiment-notes: relative growth (OD600 normalised to plate interquartile mean) (fraction); higher = less growth inhibition, active = 0.2 or less
recorded-conditions: 50 µM; LB; incubation time: overnight (16-24 h)
Hit rate of the full screen: of about 39,000 compounds, about 220 (0.56%) showed activity. The full list was thinned out, with actives kept by preference.

| structure-string | relative growth |
| --- | --- |
| Nc1c2ccccc2nc2ccccc12 | 0.0461 |
| CCC(CC)c1ccc(O)cc1 | 0.994 |
| Cl.Nc1c2c(nc3ccccc13)CCCC2 | 0.911 |

----------
Test system: Escherichia coli K-12 BW25113
experiment-notes: relative growth (OD600 normalised to plate interquartile mean) (fraction); higher = less growth inhibition, active = 0.2 or less
recorded-conditions: 50 µM; LB; incubation time: overnight (16-24 h)
Hit rate of the full screen: of about 39,000 compounds, about 220 (0.56%) showed activity. Only a selection was taken, and actives are over-represented in it overall.
Values of relative growth greater than or equal to 1 map to fulfilled; values below map to not fulfilled.

| compound | label-value |
| --- | --- |
| Cc1noc(C)c1NC(=O)N(C)C[C@@H]1OCCCC[C@@H](C)Oc2ccc(NC(=O)Cc3ccccc3)cc2C(=O)N([C@@H](C)CO)C[C@H]1C | not fulfilled |
| COc1ccc(C(=O)O)c(O)c1OC | fulfilled |
| Cc1nnc(SCC2=C(C(=O)O)N3C(=O)[C@@H](NC(=O)Cn4cnnn4)[C@H]3SC2)s1 | not fulfilled |
| CC(=O)OCC1=C(C(=O)O)N2C(=O)[C@@H](NC(=O)CSc3ccncc3)[C@H]2SC1 | fulfilled |
| CC(C)NC(=O)N(C)C[C@@H]1Oc2ccc(NC(=O)CCC(F)(F)F)cc2CC(=O)N([C@H](C)CO)C[C@@H]1C | not fulfilled |
| O=C(NO)c1cn(CC(=O)N2CCC3(CC2)C(=O)NCN3c2ccccc2)nn1 | not fulfilled |
| CC1COc2c(N3CCN(C)CC3)c(F)cc3c(=O)c(C(=O)O)cn1c23 (stereo not given) | not fulfilled |
| CN1CCN(c2c(F)cc3c(=O)c(C(=O)O)cn4c3c2OCN4C)CC1 | not fulfilled |
| O=C(NO)c1cn(-c2cccc(C(=O)N3CCC4(CC3)C(=O)NCN4c3ccccc3)c2)nn1 | not fulfilled |
| CC(=O)Nc1ncc([N+](=O)[O-])s1 | not fulfilled |
| Cc1nnc(SCC2=C(C(=O)[O-])N3C(=O)C(NC(=O)Cn4cnnn4)C3SC2)s1.[Na+] (stereo not given) | not fulfilled |

----------
Test system: Escherichia coli K-12 BW25113;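 further: Wild-type cells incubated without shaking, value is the mean of two biological replicates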
experiment-notes: relative growth (OD600 normalised to plate interquartile mean) (fraction); higher = less growth inhibition, active = 0.2 or less
recorded-conditions: 50 µM; LB; incubation time: overnight (16-24 h)
The campaign covered roughly 39,000 compounds. About 220 (0.56%) showed activity. The list comes from a sample in which actives are over-represented; it also holds close analogues and randomly drawn compounds.

| structure-string | relative growth |
| --- | --- |
| COc1ccc(S(=O)(=O)Nc2ccc3c(c2)C(=O)N([C@@H](C)CO)C[C@H](C)[C@H](CN(C)S(=O)(=O)c2ccc(C)cc2)O3)cc1 | 1.01 |
| NCC[C@@H]1CC[C@H](NC(=O)C2CC2)[C@H](CO)O1 | 0.995 |
| C[C@@H]1CCCCO[C@H](CN(C)Cc2ccccc2)[C@@H](C)CN([C@H](C)CO)C(=O)c2cc(NC(=O)C3CCCCC3)ccc2O1 | 0.995 |
| C[C@H](CO)N1C[C@H](C)[C@H](CN(C)S(=O)(=O)c2cn(C)cn2)OCCCC[C@H](C)Oc2ccc(NS(=O)(=O)c3cccs3)cc2C1=O | 1.01 |
| CN(C)CC(=O)N[C@@H]1CC[C@@H](CC(=O)O)O[C@@H]1CO | 0.983 |
| COc1ccccc1CNC(=O)C[C@@H]1C[C@@H]2c3cc(NC(=O)NC4CCCC4)ccc3O[C@@H]2[C@H](CO)O1 | 0.983 |
| COc1ccc([Si](C)(C)[C@H]2[C@H](CCOC(=O)NCCCCCC(=O)NO)O[C@]3(C(=O)N(Cc4cccc(N5CCCCC5=O)c4)c4ccccc43)[C@@H]2C)cc1 | 1.02 |
| C[C@H](CO)N1C[C@H](C)[C@@H](CN(C)S(=O)(=O)c2cn(C)cn2)Oc2ccc(NC(=O)Nc3ccc(F)cc3)cc2CC1=O | 0.986 |
